SUBJECT OF TEST: HBV core protein (UniProt P03146)
Construct: fused on or other part: BODIPY-FL maleimide label on the C-terminal Cys150
Sequence (P03146 whole entry, looked up, the tested form may be a part): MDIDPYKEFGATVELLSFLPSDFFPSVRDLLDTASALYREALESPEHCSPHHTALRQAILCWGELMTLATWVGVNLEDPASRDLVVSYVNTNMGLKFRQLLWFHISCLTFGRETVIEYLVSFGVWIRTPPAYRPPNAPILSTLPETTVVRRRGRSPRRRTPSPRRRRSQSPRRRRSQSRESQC
METHOD DESCRIPTION: Biochemical capsid assembly assay (fluorescence quenching)
Parameters: species or system hepatitis B virus
TEST CONDITIONS: read-out: Assembly Activity (IC50); BODIPY-FL labelled core protein, 300 μM NaCl, read 6 min after start
So I've got a bunch of compounds here, and I need their IC50 values.

Task: Which IC50 value is on record for O=C(c1cc2ccc(Br)cc2[nH]1)N1CCc2n[nH]c(-c3cscn3)c2C1 ?
Output: 5 to 10 µM

Task: Which IC50 value is on record for CN(C(=O)c1n[nH]c2c1CN(C(=O)c1cc3ccccc3[nH]1)CC2)C1CCCOC1 (stereo not shown) ?
Output: < 100 µM

Task: Which IC50 value is on record for CCN(C)C(=O)c1n[nH]c2c1CN(C(=O)c1cc3ccccc3[nH]1)CC2 ?
Output: < 5 µM

Task: Which IC50 value is on record for CC(O)c1cc(F)cc2[nH]c(C(=O)N3CCc4[nH]nc(C(=O)N(C)CCO)c4C3)cc12 (stereo not shown) ?
Output: < 100 µM

Task: Which IC50 value is on record for Cc1cc(F)cc2[nH]c(C(=O)N3CCc4[nH]nc(C56CC(C5)C6)c4C3)cc12 ?
Output: < 5 µM

Task: Which IC50 value is on record for CON(C)C(=O)c1n[nH]c2c1CN(C(=O)c1cc3c(F)cc(F)cc3[nH]1)CC2 ?
Output: < 5 µM

Task: Which IC50 value is on record for O=C(c1cc2ccccc2[nH]1)N1CCc2[nH]nc(C(=O)N3CC(O)C3)c2C1 ?
Output: < 5 µM

Task: Which IC50 value is on record for O=C(c1cc2ccccc2[nH]1)N1CCc2[nH]nc(OC3CCCC3)c2C1 ?
Output: 5 to 10 µM

Task: Which IC50 value is on record for C#CCOCC1(N(C)C(=O)c2n[nH]c3c2CN(C(=O)c2cc4ccccc4[nH]2)CC3)CC1 ?
Output: < 5 µM

Task: Which IC50 value is on record for CS(=O)(=O)c1n[nH]c2c1CN(C(=O)c1cc3ccccc3[nH]1)CC2 ?
Output: < 5 µM

Task: Which IC50 value is on record for CC(O)CN(C)C(=O)c1n[nH]c2c1CN(C(=O)c1cc3ccccc3[nH]1)CC2 (stereo not shown) ?
Output: < 5 µM

Task: Which IC50 value is on record for CN(CCO)C(=O)c1n[nH]c2c1CN(C(=O)c1cc3c(C(C)(F)F)cccc3[nH]1)CC2 ?
Output: < 5 µM

Task: Which IC50 value is on record for COCC1(N(C)C(=O)c2n[nH]c3c2CN(C(=O)c2cc4ccc(Cl)cc4[nH]2)CC3)CC1 ?
Output: < 5 µM

Task: Which IC50 value is on record for CC(=O)NCCN(C)C(=O)c1n[nH]c2c1CN(C(=O)c1cc3ccccc3[nH]1)CC2 ?
Output: < 100 µM

Task: Which IC50 value is on record for CN(CCO)C(=O)c1n[nH]c2c1CN(C(=O)c1cc3c(Cl)c(F)ccc3[nH]1)CC2 ?
Output: < 5 µM

Task: Which IC50 value is on record for CN(CCO)C(=O)c1n[nH]c2c1CN(C(=O)c1cc3c(F)ccc(F)c3[nH]1)CC2 ?
Output: < 5 µM
